Data origin, for the record: paper PMC5978884

Measurement record for all the tested bacterial species including Gram-positive and Gram-negative bacteria; quantity recorded: MIC against all the tested bacterial species.
Where no end group is shown, it is not given here.

                                      chain                         system_under_test      result
0  GLRKRLRKFRNKIKEKLKKIGQKNQGLLPKLAPRTDY [Peptide 28]  all the tested bacterial species including Gram-positive and Gram-negative bacteria  ≥ 32 µg/mL
1  GLRKRLRKFRNKDKEKLKKIGQKIQGLLPKLAPRTDY [Peptide 3]  all the tested bacterial species including Gram-positive and Gram-negative bacteria  ≥ 32 µg/mL
2  GLRKRLRKFRNKIKEKLKKIGQKDQGLLPKLAPRTDY [Peptide 26]  all the tested bacterial species including Gram-positive and Gram-negative bacteria  ≥ 32 µg/mL
3  GLRKRLRKFRNKIKEKDKKIGQKIQGLLPKLAPRTDY [Peptide 16]  all the tested bacterial species including Gram-positive and Gram-negative bacteria  ≥ 32 µg/mL

Consider now this further sequence.
// returns reported MIC against all the tested bacterial species for input GLRKRLRKFRNKIKEKPKKIGQKIQGLLPKLAPRTDY [Peptide 18]
≥ 32 µg/mL

---

# Test system: Salmonella enterica serovar Typhimurium LT2
# Run Description: microbe, parasite or virus in culture
# Format: cell-based
# Settings: LT2
Where no end group is shown, it is not given here.
MIC S. Typhimurium LT2 by entry:

Below, each entry is followed by its recorded MIC S. Typhimurium LT2 result.
>>> print(df.to_string())
                                      chain    result
0  GLRKRLRKFRNKIKEKLKKEGQKIQGLLPKLAPRTDY [Peptide 20]   8 µg/mL
1  GLRKRLRKFRNKIKEKLKKILQKIQGLLPKLAPRTDY [Peptide 24]  16 µg/mL

// returns reported MIC S. Typhimurium LT2 for input GLRKRLRKFRNKIKEMLKKIGQKIQGLLPKLAPRTDY [Peptide 14]
16 µg/mL

And then GLRKRLRKFRNKIKEKLKKNGQKIQGLLPKLAPRTDY [Peptide 22] , what is it?
8 to 16 µg/mL

And then GLRKRLRKFRNKIKEKLKKIGQKIQGPLPKLAPRTDY [Peptide 31] , what is it?
8 µg/mL

---

# System: Pseudomonas aeruginosa ATCC27853
# Type: cell-based
Where no end group is shown, it is not given here.
Parameter: MIC P. aeruginosa ATCC27853

Below, each entry is followed by its recorded MIC P. aeruginosa ATCC27853 result.
>>> df
                                      chain        result
0  GLRKRLRKFRNKIKEKKKKIGQKIQGLLPKLAPRTDY [Peptide 17]        8 mg/L
1  GLRKRLRKFRNKIKEKLKKICQKIQGLLPKLAPRTDY [Peptide 23]       32 mg/L
2  GLRKRLRKFRNKIKEKLKKIGQKGQGLLPKLAPRTDY [Peptide 27]       16 mg/L
3  GLRKRLRKFRNKIKEKLKKNGQKIQGLLPKLAPRTDY [Peptide 22]  8 to 16 mg/L
4  GLRKRLRKFRNKIKEKLKKIGQKCQGLLPKLAPRTDY [Peptide 25]       16 mg/L
5  GLRKRLRKFRNKIKEILKKIGQKIQGLLPKLAPRTDY [Peptide 12]       16 mg/L
6  GLRKRLRKFRNKIKEKLKKILQKIQGLLPKLAPRTDY [Peptide 24]       16 mg/L
7  GLRKRLRKFRNKIKEKLKKIGQKSQGLLPKLAPRTDY [Peptide 29]  8 to 16 mg/L
8  GLRKRPRKFRNKIKEKLKKIGQKIQGLLPKLAPRTDY [Peptide 1]      ≥64 mg/L
9  GLRKRLRKFRNKIKEKPKKIGQKIQGLLPKLAPRTDY [Peptide 18]      ≥64 mg/L

// returns reported MIC P. aeruginosa ATCC27853 for input GLRKRLRKFRNKDKEKLKKIGQKIQGLLPKLAPRTDY [Peptide 3]
≥64 mg/L

And then GLRKRLRKFRNKIKEKLKKIGQKIQGLLPKLAPRTDY [Cap18] , what is it?
4 to 8 mg/L

And then GLRKRLRKFRNKIKEKLKKIGQKIQGPLPKLAPRTDY [Peptide 31] , what is it?
8 mg/L

And then GLRKRLRKFRNKIKEDLKKIGQKIQGLLPKLAPRTDY [Peptide 10] , what is it?
16 to 32 mg/L

And then GLRKRLRKFRNKIKEKLKKHGQKIQGLLPKLAPRTDY [Peptide 21] , what is it?
8 mg/L

And then GLRKRLRKFRNKFKEKLKKIGQKIQGLLPKLAPRTDY [Peptide 4] , what is it?
4 to 8 mg/L

And then GLRKRLRKFRNKSKEKLKKIGQKIQGLLPKLAPRTDY [Peptide 8] , what is it?
8 to 16 mg/L

And then GLRKRLRKFRNKIKEKLKKEGQKIQGLLPKLAPRTDY [Peptide 20] , what is it?
16 mg/L

And then GLRKRLRKFRNKIKECLKKIGQKIQGLLPKLAPRTDY [Peptide 9] , what is it?
16 to 32 mg/L

And then GLRKRLRKFRNKHKEKLKKIGQKIQGLLPKLAPRTDY [Peptide 5] , what is it?
8 to 16 mg/L

And then GLRKRLRKFRNKIKEFLKKIGQKIQGLLPKLAPRTDY [Peptide 11] , what is it?
32 mg/L

And then GLRKRLRKFRNKIKEKDKKIGQKIQGLLPKLAPRTDY [Peptide 16] , what is it?
≥64 mg/L

And then GLRKRLRKFRNKIKEYLKKIGQKIQGLLPKLAPRTDY [Peptide 15] , what is it?
16 mg/L

And then GLRKRLRKFRNKQKEKLKKIGQKIQGLLPKLAPRTDY [Peptide 7] , what is it?
8 mg/L

And then GLRKRLRKFRNKIKEKLKKIGQKDQGLLPKLAPRTDY [Peptide 26] , what is it?
≥64 mg/L

And then GLRKRLRKFRNKIKEMLKKIGQKIQGLLPKLAPRTDY [Peptide 14] , what is it?
16 to 32 mg/L

And then GLRKRLRKFRNKIKEKLKKIGQKIQTLLPKLAPRTDY [Peptide 30] , what is it?
8 mg/L

And then GLRKRLRKFRNKIKEKLPKIGQKIQGLLPKLAPRTDY [Peptide 19] , what is it?
16 mg/L

And then GLRKRLRKFRNKIKELLKKIGQKIQGLLPKLAPRTDY [Peptide 13] , what is it?
16 to 32 mg/L

And then GLRKRLRKFRNKMKEKLKKIGQKIQGLLPKLAPRTDY [Peptide 6] , what is it?
8 to 16 mg/L

---

# System: Aeromonas salmonicida ATCC33658
# Run Description: microbe, parasite or virus in culture
# Format: cell-based
# Settings: ATCC33658
Where no end group is shown, it is not given here.
MIC A. salmonicida ATCC33658 by entry:
Could you give me the number in µg/mL? Just the number is fine.

Below, each entry is followed by its recorded MIC A. salmonicida ATCC33658 result.
                                      chain  readout_number
0  GLRKRLRKFRNKQKEKLKKIGQKIQGLLPKLAPRTDY [Peptide 7]               8
1  GLRKRLRKFRNKIKEKLKKIGQKIQTLLPKLAPRTDY [Peptide 30]               4
2  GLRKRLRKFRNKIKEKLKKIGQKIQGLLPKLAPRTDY [Cap18]               4
3  GLRKRLRKFRNKIKELLKKIGQKIQGLLPKLAPRTDY [Peptide 13]              16
4  GLRKRLRKFRNKIKEKLKKILQKIQGLLPKLAPRTDY [Peptide 24]              16
5  GLRKRLRKFRNKFKEKLKKIGQKIQGLLPKLAPRTDY [Peptide 4]               4
6  GLRKRLRKFRNKIKEKLKKIGQKIQGPLPKLAPRTDY [Peptide 31]              16
7  GLRKRLRKFRNKIKEKLKKEGQKIQGLLPKLAPRTDY [Peptide 20]              16
8  GLRKRLRKFRNKIKECLKKIGQKIQGLLPKLAPRTDY [Peptide 9]               8

Consider now this further sequence.
// returns reported MIC A. salmonicida ATCC33658 for input GLRKRLRKFRNKIKEYLKKIGQKIQGLLPKLAPRTDY [Peptide 15]
16
